Value source: the nanobody polyreactivity screen of Harvey et al. (2022)

test: yeast display, Sf9 membrane polyspecificity reagent, FACS + sequencing; frameworks hold sequencing errors
QUANTITY NAME: polyreactivity (PSR sort gate)

As a guide, the following entries are already answered.
INSERT INTO assay_data (seq_text, obs_value) VALUES
  ('QVQLVESGGGLVQAGGSLRLSCAASGSIFARYAMGWYRQAPGKERELVAAITRSGVSTYYADSVKGRFTISRDNAKNTVYLQMNSLKPEDTAVYNCNAYYPIRSTPYGYYYWGQGTQVTVSS', 'high polyreactivity'),
  ('QVQLVESGGGLVQAGGSLRLSCAASGRIFGVYAMGWYRQAPGKERELVAAITARGGSTYYADSVKGRFTISRDNAKNTVYLQMNSLKPEDTAVYYCATRLYKRTRTITYGYWGQGTQVTVSS', 'high polyreactivity'),
  ('QVQLVESGGGLVHAGGSLRLSCDASGITFGPYGMGWYRQAHGKEREFVATITTIGGITYYADSVKGRFTISRDNAKNTFYLQMNSLKPEDTAVYYCAAPWFHGYDALVDYWGQGTQVTVSS', 'low polyreactivity'),
  ('QVQLVESGGGLVQAGGSLRLSCAASGFTFYTNAMGWYRQAPGKEREFVAAISFSGGTYYADSVKGRFTISRDNAKNTVYLQMNSLKPEDTAVYYCNARYPRYYRGVIQYDYWGQGTQVTVSS', 'low polyreactivity'),
  ('QVQLVESGGGLVQAGGSLRLSCAASGFTFGINAMGWYRQAPGKERELVAAINQSGDRTYYADSVKGRFTISRDNAKNTVYLQMNSLKPEDTAVYYCAALSTYRTWYGYWGQGTQVTVSS', 'high polyreactivity');

Request: Reported polyreactivity (PSR sort gate) for QVQLVESGGGLVQAGGSLRLSCASSGSILTSYAMGWYRQAPRKERELVASIDWSAGTTYYADSVKGRFTISRDNAKNTVYLQMNSLKPEDTAVYYCGKLEFLSGYPYRPEYGSWGQGTQVTVSS : what is it?
Result: low polyreactivity

Request: Now the same for QVQLEESGGGLVQAGGSLRLSCAASGFIFGYYAMGSYRQAPGKERELVAAISKSGGRTRYADSVKGRFTISRDNAKNTVYLQMNSLKPVDTAVYYCATYDPARSTQGYDYWGQGTQVTVSS
Result: high polyreactivity

Request: Now the same for QVQLVESGGGLVQAGGSLRLSCASSGFTLGYYTMGWYRQAPGKESELVAAIRSNGGSTYYADSVKGRFTISRDNAKNTVYLQMNSLKPEDTAVYYCAARRWRYVGTRYDYWGQGTQVTVSS
Result: high polyreactivity

Request: Now the same for QVQLVESGGGLVQAGGSLRLSCAASGNNFYVYAMGWYRQATGKERELVAAIRWSGGSTYYADSVKGRFTISRDNGKNTVYLQMNSLKPEDTAVYYCAADYYLYEYEYWGQGTQVTVSS
Result: high polyreactivity

Request: Now the same for QVQLVESGGGLVQAGGSLRLSCAASGSIFYYYAMGWYRQAPGKERELVAAIDASGGSTYYADSVKGRFTISRDNAKNTVYLQMNSLKPEDTAVYYCATRSPRLSRHRRYYSWGQGTQVTVSS
Result: high polyreactivity

Request: Now the same for QVQLVESGGGLVQAGGSLRLSCAASGRILGTNAKGWYRQAPGKERELVAAISRGGSTYYADSVKGRFTISRDNANNTVYLQMNSLKPEDTAVFYCAVTVLSKRRYYYWGQGTQVTVSS
Result: high polyreactivity
